The measurements presented in this section are drawn from ChEMBL document CHEMBL5104103.

testName: Permeability across apical to basolateral membrane in human Caco-2 cells
Format: ADME, cell-based
assayContext: read-out: permeability
Criterion: Papp A→B strictly less than 5 nm/s. Met: 1. Not met: 0.

1) COCCN1CCN(C(C)(C)/C=C(\C#N)C(=O)N2CCC[C@@H](n3nc(-c4ccc(Oc5ccccc5)cc4F)c4c(N)ncnc43)C2)CC1 :: 1
2) CN1CCN(C(C)(C)/C=C(\C#N)C(=O)N2CCC[C@@H](n3nc(-c4ccc(Oc5ccccc5)cc4F)c4c(N)ncnc43)C2)CC1 :: 0
3) CC(C)(/C=C(\C#N)C(=O)N1CCC[C@@H](n2nc(-c3ccc(Oc4ccccc4)cc3F)c3c(N)ncnc32)C1)N1CCN(C2COC2)CC1 [RILZABRUTINIB] :: 0
4) C[C@@H]1CN(C(C)(C)/C=C(\C#N)C(=O)N2CCC[C@@H](n3nc(-c4ccc(Oc5ccccc5)cc4F)c4c(N)ncnc43)C2)C[C@H](C)N1C :: 1
5) CC(C)(/C=C(/C#N)C(=O)N1CCC[C@@H]1Cn1nc(-c2ccc(Oc3ccccc3)cc2F)c2c(N)ncnc21)N1CCOCC1 :: 0

Prompt: Find out if reported Papp A→B for CC(C)(/C=C(\C#N)C(=O)N1CCC[C@@H](n2nc(-c3ccc(Oc4ccccc4)cc3F)c3c(N)ncnc32)C1)N1CCNCC1 is less than 5 nm/s
Completion: 1

* * *

Could you please report measured Cmax for the items listed next?
testName: Cmax in rat at 20 mg/kg, po or 2 mg/kg, iv
Type: ADME, organism-based
Parameters: dose 20 mg/kg, route po
assayContext: in vivo

1. CN1CCN(C(C)(C)/C=C(\C#N)C(=O)N2CCC[C@@H](n3nc(-c4ccc(Oc5ccccc5)cc4F)c4c(N)ncnc43)C2)CC1 :: 96.5 ng/mL

Give me Cmax for each of these compounds, listed below.
1. CC(C)(/C=C(/C#N)C(=O)N1CCC[C@@H]1Cn1nc(-c2ccc(Oc3ccccc3)cc2F)c2c(N)ncnc21)N1CCOCC1
2. CC(C)(/C=C(\C#N)C(=O)N1CCC[C@@H](n2nc(-c3ccc(Oc4ccccc4)cc3F)c3c(N)ncnc32)C1)N1CCN(C2COC2)CC1 [RILZABRUTINIB]
3. CC(C)(C)/C=C(\C#N)C(=O)N1CCC[C@@H](n2nc(-c3ccc(Oc4ccccc4)cc3F)c3c(N)ncnc32)C1 [ATUZABRUTINIB]

Completion:
1. 406 ng/mL
2. 270 ng/mL
3. 326 ng/mL

* * *

testName: Permeability across basolateral to apical membrane in human Caco-2 cells
Format: ADME, cell-based
assayContext: read-out: permeability
reportedEndpoint: Papp B→A (×10⁻⁶ cm/s)
Numbers only, in ×10⁻⁶ cm/s.

These solved cases illustrate the format of a correct answer.
1) COCCN1CCN(C(C)(C)/C=C(\C#N)C(=O)N2CCC[C@@H](n3nc(-c4ccc(Oc5ccccc5)cc4F)c4c(N)ncnc43)C2)CC1 :: 6
2) CN1CCN(C(C)(C)/C=C(\C#N)C(=O)N2CCC[C@@H](n3nc(-c4ccc(Oc5ccccc5)cc4F)c4c(N)ncnc43)C2)CC1=O :: 5.5
3) CC(=O)N1CCN(C(C)(C)/C=C(\C#N)C(=O)N2CCC[C@@H](n3nc(-c4ccc(Oc5ccccc5)cc4F)c4c(N)ncnc43)C2)CC1 :: 22
4) CC(C)(C)/C=C(\C#N)C(=O)N1CCC[C@@H](n2nc(-c3ccc(Oc4ccccc4)cc3F)c3c(N)ncnc32)C1 :: 0.6

The record that follows has no Papp B→A shown yet.
Prompt: Entry under review: CC(C)(/C=C(\C#N)C(=O)N1CCC[C@@H](n2nc(-c3ccc(Oc4ccccc4)cc3F)c3c(N)ncnc32)C1)N1CCNC(=O)C1 . Reported Papp B→A?
Completion: 25.8
